Listing: Kd of selected sequences
- assayed_target: His-p65 (UniProt Q04206)
- Sequence (Q04206 whole entry): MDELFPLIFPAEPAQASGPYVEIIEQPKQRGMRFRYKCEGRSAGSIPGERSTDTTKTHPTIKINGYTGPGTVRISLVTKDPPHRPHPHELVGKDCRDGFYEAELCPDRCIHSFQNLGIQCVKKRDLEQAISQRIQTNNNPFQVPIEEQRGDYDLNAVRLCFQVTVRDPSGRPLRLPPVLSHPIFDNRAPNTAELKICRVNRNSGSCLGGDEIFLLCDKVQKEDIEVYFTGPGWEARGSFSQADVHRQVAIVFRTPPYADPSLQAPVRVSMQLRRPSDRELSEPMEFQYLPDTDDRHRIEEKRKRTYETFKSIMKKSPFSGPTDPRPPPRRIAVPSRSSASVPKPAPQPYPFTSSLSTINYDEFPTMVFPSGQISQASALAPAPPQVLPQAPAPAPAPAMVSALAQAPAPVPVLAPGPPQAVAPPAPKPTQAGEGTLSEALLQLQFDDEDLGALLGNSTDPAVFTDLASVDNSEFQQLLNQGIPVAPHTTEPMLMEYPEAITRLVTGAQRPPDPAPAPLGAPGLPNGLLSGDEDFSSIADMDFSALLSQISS
- experiment: SPR
- test_parameters: SPR: 10 mM HEPES, 150 mM NaCl, 3 mM EDTA, 0.05% P20, pH not stated, room temp, EMSA: 10 mM Tris-HCl pH 7.5, 10 mM NaCl, 40 mM KCl, 1 mM MgCl2, 1 mM EDTA
Please respond with the number in nM and leave the unit unwritten.

[[record]]
sequence_record = "ATAGGAAAACTGAAAGGGAGAAGTGAAAGTGGGAAATTCC (double strand) [Probe IRF3/p65]"
result_unit = "nM"
recorded_measurement = 11.5


--- query ---
Query block: Which Kd value belongs to AATGTAAGTGGGAAATTCCTCTGAATA (double strand) [Probe p65] ?
Result block: 35.2
